Where do these numbers come from? They come from patent US4649198A.

// each record: one item and its log10(MIC) for Candida albicans IFO-1594
Could you please treat all values as log10 of MIC in µg/mL?

Some solved entries appear below for comparison.
{"columns": ["molecule", "endpoint result"],
 "data": [
  ["Clc1cc(Cl)n2c(C3CCCCC3)ncc2n1", -0.41],
  ["Clc1ccc(Cc2ncc3nc(Cl)cc(Cl)n23)c(Cl)c1", -0.11],
  ["Clc1cc(Cl)n2c(-c3ccc(Br)cc3)ncc2n1", 0.50],
  ["Clc1cc(Cl)n2c(-c3ccc(Cl)c(Cl)c3)ncc2n1", 0.19],
  ["Clc1cc(Cl)n2c(-c3ccc(I)cc3)ncc2n1", 0.80],
  ["Clc1ccc(-c2ncc3nc(Cl)cc(Cl)n23)cc1", 0.50],
  ["CC(c1ccccc1)c1ncc2nc(Cl)cc(Cl)n12 (stereo not drawn)", 0.50],
  ["Clc1ccc(Cc2ncc3nc(Cl)cc(Cl)n23)cc1", 0.19]
]}

Now consider the entry below.
Item Clc1ccc(-c2ncc3nc(Cl)cc(Cl)n23)c(Cl)c1 : provide log10(MIC) 0.50

###

# System: Microsporum canis 20010
# experiment description: antifungal activity, standard agar dilution streak method
# Assay type: cell-based
# condition details: read-out: Minimum Inhibitory Concentration
// reported MIC per item
Respond with a number, then the unit of measure.

Some solved entries appear below for comparison.
{"columns": ["molecule", "MIC"],
 "data": [
  ["Clc1cc(Cl)n2c(C3CCCCC3)ncc2n1 [Ex. 23]", "1.56 µg/mL"],
  ["Clc1ccc(Cc2ncc3nc(Cl)cc(Cl)n23)c(Cl)c1 [Ex. 20]", "0.78 µg/mL"],
  ["Clc1ccc(-c2ncc3nc(Cl)cc(Cl)n23)cc1 [Ex. 1]", "0.78 µg/mL"],
  ["CC(c1ccccc1)c1ncc2nc(Cl)cc(Cl)n12 (centres unmarked) [Ex. 18]", "1.56 µg/mL"],
  ["Clc1ccc(-c2ncc3nc(Cl)cc(Cl)n23)c(Cl)c1 [Ex. 9]", "1.56 µg/mL"]
]}

Item Clc1cc(Cl)n2c(-c3ccc(Cl)c(Cl)c3)ncc2n1 [Ex. 7] : provide MIC 0.39 µg/mL

Item Clc1cc(Cl)n2c(-c3ccc(Br)cc3)ncc2n1 [Ex. 5] : provide MIC 0.78 µg/mL

Item Clc1ccc(Cc2ncc3nc(Cl)cc(Cl)n23)cc1 [Ex. 16] : provide MIC 0.39 µg/mL

###

// reported MIC per item
# System: Candida albicans MTU-12124
# experiment description: antifungal activity, standard agar dilution streak method
# Assay type: cell-based
# condition details: MTU12124, read-out: Minimum Inhibitory Concentration
Report as a plain number; the unit µg/mL is understood.

{"columns": ["compound", "MIC, µg/mL"],
 "data": [
  ["Clc1ccc(Cc2ncc3nc(Cl)cc(Cl)n23)c(Cl)c1 [Ex. 20]", 0.78],
  ["Clc1cc(Cl)n2c(-c3ccc(Br)cc3)ncc2n1 [Ex. 5]", 3.13],
  ["Clc1cc(Cl)n2c(-c3ccc(I)cc3)ncc2n1 [Ex. 21]", 1.56],
  ["Clc1cc(Cl)n2c(C3CCCCC3)ncc2n1 [Ex. 23]", 6.25],
  ["Clc1cc(Cl)n2c(-c3ccc(Cl)c(Cl)c3)ncc2n1 [Ex. 7]", 1.56],
  ["Clc1ccc(-c2ncc3nc(Cl)cc(Cl)n23)c(Cl)c1 [Ex. 9]", 1.56],
  ["Clc1ccc(-c2ncc3nc(Cl)cc(Cl)n23)cc1 [Ex. 1]", 3.13],
  ["CC(c1ccccc1)c1ncc2nc(Cl)cc(Cl)n12 (stereo not drawn) [Ex. 18]", 3.13]
]}

Now consider the entry below.
Item Clc1ccc(Cc2ncc3nc(Cl)cc(Cl)n23)cc1 [Ex. 16] : provide MIC 6.25

###

// each record: one item and its MIC for Candida albicans 3147
Report as a plain number; the unit mg/L is understood.

{"columns": ["compound", "MIC / mg/L"],
 "data": [
  ["Clc1ccc(Cc2ncc3nc(Cl)cc(Cl)n23)c(Cl)c1 [Ex. 20]", 0.78],
  ["CC(c1ccccc1)c1ncc2nc(Cl)cc(Cl)n12 (stereo not drawn) [Ex. 18]", 3.13],
  ["Clc1ccc(-c2ncc3nc(Cl)cc(Cl)n23)cc1 [Ex. 1]", 6.25],
  ["Clc1cc(Cl)n2c(-c3ccc(I)cc3)ncc2n1 [Ex. 21]", 1.56]
]}

Item Clc1cc(Cl)n2c(-c3ccc(Cl)c(Cl)c3)ncc2n1 [Ex. 7] : provide MIC 1.56

Item Clc1ccc(-c2ncc3nc(Cl)cc(Cl)n23)c(Cl)c1 [Ex. 9] : provide MIC 1.56

Item Clc1ccc(Cc2ncc3nc(Cl)cc(Cl)n23)cc1 [Ex. 16] : provide MIC 1.56

Item Clc1cc(Cl)n2c(-c3ccc(Br)cc3)ncc2n1 [Ex. 5] : provide MIC 1.56

Item Clc1cc(Cl)n2c(C3CCCCC3)ncc2n1 [Ex. 23] : provide MIC 1.56

###

# System: Candida albicans IFO-1388
// reported MIC per item
Report as a plain number; the unit µg/mL is understood.

Some solved entries appear below for comparison.
{"columns": ["compound", "MIC (µg/mL)"],
 "data": [
  ["CC(c1ccccc1)c1ncc2nc(Cl)cc(Cl)n12 (stereo not drawn) [Ex. 18]", 0.78],
  ["Clc1cc(Cl)n2c(C3CCCCC3)ncc2n1 [Ex. 23]", 0.2],
  ["Clc1ccc(Cc2ncc3nc(Cl)cc(Cl)n23)c(Cl)c1 [Ex. 20]", 0.78],
  ["Clc1cc(Cl)n2c(-c3ccc(I)cc3)ncc2n1 [Ex. 21]", 3.13],
  ["Clc1cc(Cl)n2c(-c3ccc(Br)cc3)ncc2n1 [Ex. 5]", 1.56],
  ["Clc1ccc(-c2ncc3nc(Cl)cc(Cl)n23)cc1 [Ex. 1]", 1.56]
]}

Item Clc1cc(Cl)n2c(-c3ccc(Cl)c(Cl)c3)ncc2n1 [Ex. 7] : provide MIC 1.56

Item Clc1ccc(-c2ncc3nc(Cl)cc(Cl)n23)c(Cl)c1 [Ex. 9] : provide MIC 0.78

Item Clc1ccc(Cc2ncc3nc(Cl)cc(Cl)n23)cc1 [Ex. 16] : provide MIC 1.56

###

// each record: one item and its MIC for Trichophyton mentagrophytes MTU-19005
Report as a plain number; the unit µg/mL is understood.

Under Trichophyton mentagrophytes MTU-19005, report MIC for Clc1ccc(Cc2ncc3nc(Cl)cc(Cl)n23)c(Cl)c1 0.78

Under Trichophyton mentagrophytes MTU-19005, report MIC for Clc1cc(Cl)n2c(C3CCCCC3)ncc2n1 1.56

###

// each record: one item and its MIC for Trichophyton mentagrophytes MTU-19005
Report as a plain number; the unit µg/mL is understood.

Some solved entries appear below for comparison.
{"columns": ["molecule", "tested on", "MIC [µg/mL]"],
 "data": [
  ["Clc1cc(Cl)n2c(-c3ccc(Cl)c(Cl)c3)ncc2n1", "Trichophyton mentagrophytes MTU-19005", 139],
  ["Clc1ccc(Cc2ncc3nc(Cl)cc(Cl)n23)cc1", "Trichophyton mentagrophytes MTU-19005", 0.2],
  ["Clc1ccc(-c2ncc3nc(Cl)cc(Cl)n23)cc1", "Trichophyton mentagrophytes MTU-19005", 0.78],
  ["Clc1cc(Cl)n2c(-c3ccc(Br)cc3)ncc2n1", "Trichophyton mentagrophytes MTU-19005", 0.78]
]}

Item Clc1ccc(-c2ncc3nc(Cl)cc(Cl)n23)c(Cl)c1 : provide MIC 0.78

Item CC(c1ccccc1)c1ncc2nc(Cl)cc(Cl)n12 (stereo not drawn) : provide MIC 1.56
